Test system: Plasmodium falciparum
Assay Remarks: Calibr Malaria Delayed Death Assay SOP
Assay type: functional, organism-based
Set-up: scale not given: in the data most compounds retested in dose-response had high values
Run Conditions: concentration 4.99e-06 (unit not given; other assays of the set use mol/L)
Screen size: about 38,000 compounds; about 1,200 (3.2%) showed an effect of 50% or more. The median lay at about -58%. This excerpt belongs to a sample that is enriched for strong results.
# note: boundary value -80% maps to condition not met; Percent Effect below it maps to condition met

Is it true that Percent Effect reported for `c1ccc(-c2nc3c(c(NCc4n[nH]c5c4CCC5)n2)CCNC3)cc1` is less than -80%?
condition not met

Is it true that Percent Effect reported for `CCOc1cccc(CNC(=O)c2cnn(CC)c2C(F)(F)F)c1` is less than -80%?
condition met

Is it true that Percent Effect reported for `Cc1cnccc1-c1cc(NCCO)nc2[nH]ccc12` is less than -80%?
condition not met

Is it true that Percent Effect reported for `Cc1cccc(CN2CCn3c(C(=O)N(C)C)cnc3C2)c1` is less than -80%?
condition met

Is it true that Percent Effect reported for CC1CC(NS(=O)(=O)c2ccc(C(F)(F)F)nc2)C1 (stereo not given) is less than -80%?
condition met

* * *

System: Plasmodium falciparum
Assay Remarks: Calibr Malaria Delayed Death Assay SOP
Format: functional, organism-based
Set-up: scale not given: in the data most compounds retested in dose-response had high values
Run Conditions: concentration 4.99e-06 (unit not given; other assays of the set use mol/L)
In all, about 38,000 compounds went through this assay and about 1,200 (3.2%) showed an effect of 50% or more. The median lay at about -58%. Only a selection was taken, and strong results are over-represented in it overall.
Quantity Kind: Percent Effect (%)
Give the value in % but do not write % after it.

Give the reported Percent Effect for `Cn1c(C2CC2)nc2c1CCN(CCOc1ccccc1C#N)C2` (system: Plasmodium falciparum).
-3.674

Give the reported Percent Effect for `Cc1cc(N(Cc2ccccn2)C2CC2)n2nc(C(F)(F)F)nc2n1` (system: Plasmodium falciparum).
-69.19

Give the reported Percent Effect for Cl.Cl.c1ccc2c(c1)C(NC1CCCC1)CC21CCNCC1 (stereo unspecified) (system: Plasmodium falciparum).
74.54

Give the reported Percent Effect for `CCn1cc(-c2cc(C(F)F)n3nc(CC(=O)O)nc3n2)cn1` (system: Plasmodium falciparum).
-21.51

Give the reported Percent Effect for CC(C)(C)c1cnc(CN(Cc2cccnc2)CC2CCCO2)o1 (stereo unspecified) (system: Plasmodium falciparum).
21.12

Give the reported Percent Effect for `CCc1nc(CN2CCCN(C(=O)c3ccco3)CC2)cs1` (system: Plasmodium falciparum).
-4.304

Give the reported Percent Effect for `CC(=O)c1cc2c(=O)[nH]c(=O)n(C)c2nc1C` (system: Plasmodium falciparum).
-16.7

Give the reported Percent Effect for Cc1ccc2c(c1)C1(CCNCC1)CC2OCC1CC1 (stereo unspecified) (system: Plasmodium falciparum).
44.42

Give the reported Percent Effect for O=C(O)C(F)(F)F.c1cnc(NC2COC3(CCN(Cc4cccs4)CC3)C2)nc1 (stereo unspecified) (system: Plasmodium falciparum).
-52.55

Give the reported Percent Effect for `O=C(CCc1ccccc1)NCC1CCN(Cc2ccccc2)CC1` (system: Plasmodium falciparum).
43.31

Give the reported Percent Effect for `CN1CC2(CCN(c3ncnc4c3CCNC4)CC2)OC1=O` (system: Plasmodium falciparum).
-26.92

Give the reported Percent Effect for `CC(=O)N1CCc2nc(N(C)C)nc(NCCc3ccccc3)c2CC1` (system: Plasmodium falciparum).
-47.75

Give the reported Percent Effect for `Cc1cc(N(Cc2cccs2)C2CC2)n2nc(C(F)(F)F)nc2n1` (system: Plasmodium falciparum).
65.64

Give the reported Percent Effect for Cc1cc(CN2CCC3(CC2)CC(Nc2ncccn2)CO3)nn1C.O=C(O)C(F)(F)F (stereo unspecified) (system: Plasmodium falciparum).
-11.8

Give the reported Percent Effect for `Cc1noc([C@@]23CCO[C@@H]2CCN(S(=O)(=O)c2cccnc2)C3)n1` (system: Plasmodium falciparum).
-112.8

Give the reported Percent Effect for Cn1cc(CN2CCC3(CC2)CC(Nc2nccs2)CO3)cn1.O=C(O)C(F)(F)F (stereo unspecified) (system: Plasmodium falciparum).
-11.64

Give the reported Percent Effect for CC(NCC1(N(C)C)CCOCC1)c1ccc(SC(F)F)cc1 (stereo unspecified) (system: Plasmodium falciparum).
51.19

Give the reported Percent Effect for CNC(=O)CC1CC2(CCNCC2)c2cc(F)ccc21 (stereo unspecified) (system: Plasmodium falciparum).
-118.7

Give the reported Percent Effect for CC(C)CC(NC(=O)c1ccn(C)c(=O)c1)c1cccs1 (stereo unspecified) (system: Plasmodium falciparum).
-80.8

Give the reported Percent Effect for `COCCN1C[C@@H]2CN(C(=O)[C@H]3CCCO3)C[C@@H]2C1=O` (system: Plasmodium falciparum).
-140.9

Give the reported Percent Effect for CCc1n[nH]c(C2CN(C(=O)COCC(F)(F)F)CCO2)n1 (stereo unspecified) (system: Plasmodium falciparum).
-109.1

Give the reported Percent Effect for O=C(O)C(F)(F)F.c1ccc(CN2CCC3(CC2)CC(Nc2nccs2)CO3)nc1 (stereo unspecified) (system: Plasmodium falciparum).
73.68

Give the reported Percent Effect for `CN(C)c1nc2c(c(NCc3cc(O)ncn3)n1)CCCC2` (system: Plasmodium falciparum).
89.31

Give the reported Percent Effect for Cl.O=C1NC2(CCNCC2)CC1c1ccccc1 (stereo unspecified) (system: Plasmodium falciparum).
-140.8

Give the reported Percent Effect for `CC(C)Nc1cc(N2CCC(n3cc(CCO)nn3)CC2)ncn1` (system: Plasmodium falciparum).
-78.28

Give the reported Percent Effect for Nc1nc(CC(=O)N2CCCC(CCc3cccc(F)c3)C2)cc(=O)[nH]1 (stereo unspecified) (system: Plasmodium falciparum).
-43.06

Give the reported Percent Effect for CC(C)NC1CC2(CCNCC2)c2cc(F)ccc21.Cl.Cl (stereo unspecified) (system: Plasmodium falciparum).
6.754

Give the reported Percent Effect for `CCN1C[C@H]2[C@@H](C1)N(S(=O)(=O)c1ccccc1)CC[C@H]2OC.O=C(O)C(F)(F)F` (system: Plasmodium falciparum).
60.81

Give the reported Percent Effect for `Cc1ccc(CN(c2cc(C)nc3nc(C(F)(F)F)nn23)C2CC2)cc1` (system: Plasmodium falciparum).
93.63

Give the reported Percent Effect for `COCCN(c1cc(C)nc2nc(C(F)(F)F)nn12)C1CCCC1` (system: Plasmodium falciparum).
-69.88

Give the reported Percent Effect for `CCN1C[C@@H]2[C@@H](OC)CCN(S(=O)(=O)c3cccnc3)[C@@H]2C1.O=C(O)C(F)(F)F.O=C(O)C(F)(F)F` (system: Plasmodium falciparum).
-23.75

* * *

Tested on: Plasmodium falciparum
Assay Remarks: Calibr Malaria Delayed Death Assay SOP
Assay type: functional, organism-based
Parameters: scale not given: in the data most compounds retested in dose-response had high values
Run Conditions: concentration 4.99e-06 (unit not given; other assays of the set use mol/L)
In all, about 38,000 compounds went through this assay and about 1,200 (3.2%) showed an effect of 50% or more. The median lay at about -58%. The list comes from a sample in which strong results are over-represented; it also holds close analogues and randomly drawn compounds.
Decide by Percent Effect: equal to or exceeding -50% means satisfied, less means not satisfied.

In plain terms: is recorded Percent Effect at least -50% for Cc1nccn1CCC1CCCCN1C(=O)c1ccc2[nH]nnc2c1 (stereo not drawn) ?
satisfied

In plain terms: is recorded Percent Effect at least -50% for Cc1cc(CN2CCC(C3CCN(CCc4ccccc4)CC3)C2)[nH]n1 (stereo not drawn) ?
satisfied

In plain terms: is recorded Percent Effect at least -50% for `O=C(c1cc2c(s1)CCCCC2)N1CCC(c2ncc[nH]2)CC1` ?
satisfied

In plain terms: is recorded Percent Effect at least -50% for COc1ccc(C(C)NCc2ccnn2C)cc1Cn1cccn1 (stereo not drawn) ?
not satisfied

In plain terms: is recorded Percent Effect at least -50% for `O=C(O)C1(O)CCN(c2ccnc3c(C(F)(F)F)cccc23)CC1` ?
not satisfied

In plain terms: is recorded Percent Effect at least -50% for `CN1CCCN(C(=O)NCCNc2cnccn2)CC1` ?
satisfied

In plain terms: is recorded Percent Effect at least -50% for `O=C(c1ccco1)N1CC(S(=O)(=O)c2ccc(Cl)cc2)C1` ?
not satisfied

In plain terms: is recorded Percent Effect at least -50% for `O=C(c1cscn1)N1CCc2ncc(CN3CCOCC3)n2CC1` ?
satisfied

In plain terms: is recorded Percent Effect at least -50% for `Cc1cc(CNc2cncc(C(=O)N(C)C)n2)c2[nH]c(C)c(C)c2c1` ?
not satisfied

In plain terms: is recorded Percent Effect at least -50% for `Cc1nc(-c2cccc(N3CCC(N4CCCC4)CC3)c2)cs1` ?
satisfied

In plain terms: is recorded Percent Effect at least -50% for COc1ccc(C(C)NCc2ccsc2)cc1Cn1cccn1 (stereo not drawn) ?
satisfied

In plain terms: is recorded Percent Effect at least -50% for Cc1nc(-c2cccc(C(=O)O)c2)cc(C2CCCN(C(C)C)C2)n1 (stereo not drawn) ?
not satisfied

In plain terms: is recorded Percent Effect at least -50% for `Cc1cc(NCCO)nc(-c2ccccc2O)n1` ?
not satisfied

In plain terms: is recorded Percent Effect at least -50% for `CCc1ccc(CN2CCC3(CC2)CN(c2cnn(C)c2)C(=O)CO3)o1.O=C(O)C(F)(F)F.O=C(O)C(F)(F)F` ?
not satisfied

In plain terms: is recorded Percent Effect at least -50% for COc1ncccc1C1CC(=O)Nc2cc(NS(C)(=O)=O)ccc21 (stereo not drawn) ?
not satisfied

In plain terms: is recorded Percent Effect at least -50% for `Cc1cc(C)c2nc(CN3CC[C@@H](O)C3)cc(O)c2c1` ?
satisfied

In plain terms: is recorded Percent Effect at least -50% for Cc1nc(-c2cccc(N3CCC(N4CCCC(C#N)C4)CC3)c2)cs1 (stereo not drawn) ?
satisfied

In plain terms: is recorded Percent Effect at least -50% for COc1ccc(C(C)NCc2scnc2C)cc1Cn1cccn1 (stereo not drawn) ?
satisfied

In plain terms: is recorded Percent Effect at least -50% for COc1ccc(C(C)NCc2cscn2)cc1Cn1cccn1 (stereo not drawn) ?
satisfied

In plain terms: is recorded Percent Effect at least -50% for `CCc1ccsc1C(=O)N1CCN(C(=O)CC(F)(F)F)CC1` ?
not satisfied

In plain terms: is recorded Percent Effect at least -50% for `Cc1cc(NCCN)nc(-c2ccccc2O)n1` ?
satisfied

In plain terms: is recorded Percent Effect at least -50% for `CC(=O)Nc1ccc2nc(-c3nccn3C[C@@H]3CCCO3)ccc2c1` ?
not satisfied

In plain terms: is recorded Percent Effect at least -50% for O=C(O)C(F)(F)F.O=C(O)C(F)(F)F.c1cncc(C2COC3(CCN(Cc4ccsc4)CC3)C2)c1 (stereo not drawn) ?
satisfied

In plain terms: is recorded Percent Effect at least -50% for Cc1cc(CN2CCC(C3CCN(Cc4cccnc4)CC3)C2)[nH]n1 (stereo not drawn) ?
satisfied

In plain terms: is recorded Percent Effect at least -50% for c1ccc(-c2noc(CCCN3CCCC3Cn3cccn3)n2)cc1 (stereo not drawn) ?
satisfied

In plain terms: is recorded Percent Effect at least -50% for `CC1CCN(C(=O)CN(Cc2ccco2)C2CC2)CC1` ?
not satisfied

In plain terms: is recorded Percent Effect at least -50% for CS(=O)(=O)c1ccccc1-n1cc(NC(=O)CC2C=CCC2)cn1 (stereo not drawn) ?
not satisfied

In plain terms: is recorded Percent Effect at least -50% for CCN(CC)C(CNCc1ccc(O)cc1)c1ccco1 (stereo not drawn) ?
satisfied

In plain terms: is recorded Percent Effect at least -50% for CCN(CC1CN(Cc2c(C)noc2C)CCO1)c1cccnn1 (stereo not drawn) ?
not satisfied

In plain terms: is recorded Percent Effect at least -50% for `COc1ccc(CN2CC[C@@H](O)[C@@H]2Cc2cnn(C)c2)cc1.O=C(O)C(F)(F)F` ?
not satisfied

In plain terms: is recorded Percent Effect at least -50% for `Cn1cnc(S(=O)(=O)N2CCN(Cc3ccco3)CC2)c1Cl` ?
satisfied

In plain terms: is recorded Percent Effect at least -50% for `COc1ccc(OC)c(CN2CCN(Cc3cscn3)CC2)c1` ?
satisfied

In plain terms: is recorded Percent Effect at least -50% for CN1CCCC1CCn1ccnc1-c1nc2ccccc2[nH]1 (stereo not drawn) ?
satisfied
